System: SF-268 CNS
ASSAY: NCI tumour cell line growth inhibition, 48 h
Listed below: GI50 values for each entry.

Previously resolved entries follow.
[
  {
    "COMPOUND": "COc1cc2nccc(Oc3ccc(NC(=O)NC4CC4)c(Cl)c3)c2cc1C(N)=O",
    "ASSAYED_TARGET": "SF-268 CNS",
    "GI50": "10.3 µM"
  },
  {
    "COMPOUND": "COc1ccc2sc3cccc(NCCN(C)C)c3c(=O)c2c1",
    "ASSAYED_TARGET": "SF-268 CNS",
    "GI50": "3.81 µM"
  }
]

Next, consider the following compound.
input: Can you share its GI50? I mean this compound: C=CCC(N[C@@H](CO)c1ccccc1)c1cn(Cc2ccccc2Cl)c(=O)n(Cc2ccccc2Cl)c1=O (stereo partly drawn)
output: > 100 µM
